Biological target: PRKX (human)
Assay: split-luciferase competition binding
Settings: compound 10.0 µM
Is inhibition at least 2%? Then Fulfilled. If not, Not fulfilled.

See these solved cases before continuing.
- compound: "NC(=O)c1ccc(-c2nc(-c3ccccn3)c(-c3ccc4c(c3)OCO4)[nH]2)cc1"
  answer-label: "Not fulfilled"
- compound: "Cc1cc(I)ccc1Nc1c(C(=O)NOCC2CC2)cc(F)c(F)c1F"
  answer-label: "Fulfilled"

-- ask # bool: inhibition of "Cc1cc(F)c(Nc2ncnc3cc(OCc4ccccc4)ccc23)cc1O" >= 2%
-- reply Not fulfilled

-- ask Try this compound next: "CS(=O)(=O)CCNCc1nc(-c2ccc3ncnc(Nc4ccc(OCc5cccc(F)c5)c(Cl)c4)c3c2)cs1"
-- reply Fulfilled

-- ask Try this compound next: "N#CC(=C(\N)Sc1ccccc1N)/C(C#N)=C(/N)Sc1ccccc1N"
-- reply Not fulfilled

-- ask Try this compound next: "C/C(O)=C(\C#N)C(=O)Nc1cc(Br)ccc1Br"
-- reply Not fulfilled

-- ask Try this compound next: COc1cc(CC2C(=O)OC[C@@H]2Cc2ccc(OC)c(OC)c2)ccc1O (some centres undefined)
-- reply Not fulfilled

-- ask Try this compound next: "COc1nccc(-c2c(-c3ccc(F)cc3)ncn2[C@H]2CC[C@H](O)CC2)n1"
-- reply Fulfilled

-- ask Try this compound next: "O=C1NC(=O)c2c1c1c3ccccc3n3c1c1c2c2ccccc2n1C1CCC3O1"
-- reply Fulfilled

-- ask Try this compound next: "O=c1cc(N2CCOCC2)oc2c(-c3ccccc3)cccc12"
-- reply Not fulfilled

-- ask Try this compound next: "O=S(=O)(c1cccc2c(O)nccc12)N1CCCNCC1"
-- reply Fulfilled

-- ask Try this compound next: "CC(C)[C@H](CO)Nc1nc(Nc2cc(N)cc(Cl)c2)c2ncn(C(C)C)c2n1"
-- reply Fulfilled

-- ask Try this compound next: "COc1cc2ncnc(Nc3ccc(Cl)cc3F)c2cc1OC"
-- reply Fulfilled

====

Reported inhibition values follow for various compounds
Biological target: RPS6KA6 KD1 (human)
Test: split-luciferase competition binding
Details: compound 10.0 µM

Below, each entry is followed by its recorded inhibition result.
- compound: "O=C1NC(=O)c2c1c1c3ccccc3[nH]c1c1[nH]c3ccccc3c21"
  tested-on: "RPS6KA6 KD1 (human)"
  inhibition: "36%"
- compound: "N#C/C(=C\\c1ccc(O)c(O)c1)C(=O)NCc1ccccc1"
  tested-on: "RPS6KA6 KD1 (human)"
  inhibition: "0%"

-- ask Data request, read-out inhibition, for COc1cc(CC2C(=O)OC[C@@H]2Cc2ccc(OC)c(OC)c2)ccc1O (stereo partly specified)
-- reply 12%

-- ask Try this compound next: "NC(=O)Nc1sc(-c2ccc(F)cc2)cc1C(N)=O"
-- reply 37%

-- ask Try this compound next: "Cc1ccccc1C(=O)c1ccc(Nc2ccc(Br)cc2N)cc1Cl"
-- reply 0%

-- ask Try this compound next: "Cn1cc(C2=C(c3ccc(Cl)cc3Cl)C(=O)NC2=O)c2ccccc21"
-- reply 0%

====

Target: RPS6KA4 KD1 (human) (UniProt O75676)
Sequence (O75676 whole entry, looked up): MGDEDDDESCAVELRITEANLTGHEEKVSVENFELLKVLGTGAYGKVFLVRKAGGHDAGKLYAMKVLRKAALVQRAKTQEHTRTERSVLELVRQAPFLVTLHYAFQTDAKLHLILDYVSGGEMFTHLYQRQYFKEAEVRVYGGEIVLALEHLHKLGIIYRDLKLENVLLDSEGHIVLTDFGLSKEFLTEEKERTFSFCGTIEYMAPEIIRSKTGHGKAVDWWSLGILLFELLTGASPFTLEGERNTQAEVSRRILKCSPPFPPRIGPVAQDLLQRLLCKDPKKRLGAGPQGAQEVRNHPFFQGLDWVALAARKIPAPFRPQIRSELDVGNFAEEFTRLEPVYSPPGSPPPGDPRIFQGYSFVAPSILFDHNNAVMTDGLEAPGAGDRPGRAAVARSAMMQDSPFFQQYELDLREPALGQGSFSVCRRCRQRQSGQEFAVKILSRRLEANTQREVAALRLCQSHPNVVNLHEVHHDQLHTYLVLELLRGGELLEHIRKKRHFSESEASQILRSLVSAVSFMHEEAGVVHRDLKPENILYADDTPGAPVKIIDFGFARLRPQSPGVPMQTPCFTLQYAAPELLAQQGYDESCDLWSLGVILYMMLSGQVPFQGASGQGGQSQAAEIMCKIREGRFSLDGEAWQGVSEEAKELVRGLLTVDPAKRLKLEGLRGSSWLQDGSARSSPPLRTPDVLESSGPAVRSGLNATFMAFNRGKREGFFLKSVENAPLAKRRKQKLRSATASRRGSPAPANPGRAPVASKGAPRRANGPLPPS
Test: split-luciferase competition binding
Settings: compound 10.0 µM
Reported inhibition values follow for various compounds
Give your result as the value with the unit written after it.

Below, each entry is followed by its recorded inhibition result.
- compound: "C/C(O)=C(\\C#N)C(=O)Nc1cc(Br)ccc1Br"
  inhibition: "0%"
- compound: "Cc1[nH]c(/C=C2\\C(=O)Nc3ccc(S(=O)(=O)Cc4c(Cl)cccc4Cl)cc32)c(C)c1C(=O)N1CCC[C@@H]1CN1CCCC1"
  inhibition: "12%"
- compound: "O=S(=O)(c1cccc2cnccc12)N1CCCNCC1"
  inhibition: "0%"
- compound: "CC(C)[C@H](CO)Nc1nc(Nc2cc(N)cc(Cl)c2)c2ncn(C(C)C)c2n1"
  inhibition: "39%"
- compound: "COc1cc2c(Nc3ccc(NC(=O)c4ccccc4)cc3)ncnc2cc1OCCCN1CCOCC1"
  inhibition: "0%"
- compound: "COc1cc2ncn(-c3cc(OCc4ccccc4C(F)(F)F)c(C(N)=O)s3)c2cc1OC"
  inhibition: "14%"

-- ask Data request, read-out inhibition, for "Nc1ccc(-c2cccc3c(=O)cc(N4CCOCC4)oc23)cc1"
-- reply 3%

-- ask Try this compound next: "O=c1cc(N2CCOCC2)oc2c(-c3ccccc3)cccc12"
-- reply 0%

====

Target: DMPK (human) (UniProt Q09013)
Sequence (Q09013 whole entry, looked up): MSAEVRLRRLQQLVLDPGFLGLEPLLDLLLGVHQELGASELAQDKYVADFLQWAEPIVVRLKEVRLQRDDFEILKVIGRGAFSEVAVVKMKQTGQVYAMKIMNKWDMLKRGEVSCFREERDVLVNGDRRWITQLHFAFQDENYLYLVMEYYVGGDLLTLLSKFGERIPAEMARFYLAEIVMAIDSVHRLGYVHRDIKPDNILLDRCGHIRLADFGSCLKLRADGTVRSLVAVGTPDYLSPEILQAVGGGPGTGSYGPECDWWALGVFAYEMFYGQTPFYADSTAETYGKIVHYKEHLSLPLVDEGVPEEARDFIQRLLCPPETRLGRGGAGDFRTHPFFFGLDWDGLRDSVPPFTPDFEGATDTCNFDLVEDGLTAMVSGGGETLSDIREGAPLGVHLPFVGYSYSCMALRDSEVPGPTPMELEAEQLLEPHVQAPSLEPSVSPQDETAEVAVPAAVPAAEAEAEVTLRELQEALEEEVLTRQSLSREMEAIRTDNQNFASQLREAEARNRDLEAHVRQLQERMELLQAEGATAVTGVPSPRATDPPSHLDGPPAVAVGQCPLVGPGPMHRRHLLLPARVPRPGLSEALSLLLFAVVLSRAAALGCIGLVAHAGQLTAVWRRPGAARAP
Experiment: split-luciferase competition binding
Details: compound 10.0 µM
Reported inhibition values follow for various molecules
API: value field is a number in %; no unit string.

Below, each entry is followed by its recorded inhibition result.
- smiles-string: "Cc1cc2nc3c(=O)[nH]c(=O)nc-3n(C)c2cc1C=O"
  inhibition (%): 0
- smiles-string: "O=C(Nc1cc(C(F)(F)F)cc(C(F)(F)F)c1)c1cc(Cl)ccc1O"
  inhibition (%): 3
- smiles-string: "CC(C)N(CCC(=O)c1ccc2ccccc2c1)Cc1ccccc1"
  inhibition (%): 0

-- ask Data request, read-out inhibition, for "O=C1Nc2ccc(I)cc2/C1=C/c1cc(Br)c(O)c(Br)c1"
-- reply 11

-- ask Try this molecule next: "NC(=O)Nc1sc(-c2ccc(F)cc2)cc1C(N)=O"
-- reply 0

-- ask Try this molecule next: "O=C1c2ccccc2-c2n[nH]c3cccc1c23"
-- reply 0

-- ask Try this molecule next: "CN1CCC(Nc2ncc3ncnc(Nc4ccc(F)c(Cl)c4)c3n2)CC1"
-- reply 3

-- ask Try this molecule next: "NC(=O)c1sc(-c2ccsc2)cc1N"
-- reply 0

-- ask Try this molecule next: "Cc1ccc(NC(=O)c2cccc(N(C)C)c2)cc1NC(=O)c1ccc(O)cc1"
-- reply 0

====

Reported inhibition values follow for various molecules
Biological target: AKT1 (human)
Assay: split-luciferase competition binding
Details: compound 10.0 µM
API: value field is a number in %; no unit string.

Below, each entry is followed by its recorded inhibition result.
- smiles-string: "CN1CCC(Nc2ncc3ncnc(Nc4ccc(F)c(Cl)c4)c3n2)CC1"
  inhibition (%): 0
- smiles-string: "COc1cc2ncnc(Nc3ccc(F)c(Cl)c3)c2cc1OCCCN1CCOCC1"
  inhibition (%): 0
- smiles-string: "NC(=O)Nc1sc(-c2ccc(F)cc2)cc1C(N)=O"
  inhibition (%): 0

-- ask Data request, read-out inhibition, for "COc1cc2c(Nc3ccc(NC(=O)c4ccccc4)cc3)ncnc2cc1OCCCN1CCOCC1"
-- reply 9

-- ask Try this molecule next: "CC(C)[C@H](CO)Nc1nc(Nc2cc(N)cc(Cl)c2)c2ncn(C(C)C)c2n1"
-- reply 0

====

Target: PRKCE (human)
Assay: split-luciferase competition binding
Conditions: compound 10.0 µM
Is inhibition at least 6%? Then yes (1). If not, no (0).

See these solved cases before continuing.
- smiles-string: "O=C1c2ccccc2-c2n[nH]c3cccc1c23"
  tested-on: "PRKCE (human)"
  answer-label: "no (0)"
- smiles-string: "Cc1[nH]c(/C=C2\\C(=O)Nc3ccc(S(=O)(=O)Cc4c(Cl)cccc4Cl)cc32)c(C)c1C(=O)N1CCC[C@@H]1CN1CCCC1"
  tested-on: "PRKCE (human)"
  answer-label: "yes (1)"
- smiles-string: "CO[C@@H]1[C@H](N(C)C(=O)c2ccccc2)C[C@H]2O[C@]1(C)n1c3ccccc3c3c4c(c5c6ccccc6n2c5c31)C(=O)NC4"
  tested-on: "PRKCE (human)"
  answer-label: "yes (1)"
- smiles-string: "O=S(=O)(c1cccc2c(Cl)cccc12)N1CCCNCC1"
  tested-on: "PRKCE (human)"
  answer-label: "no (0)"
- smiles-string: "C=CC(=O)c1ccc2ccccc2c1"
  tested-on: "PRKCE (human)"
  answer-label: "no (0)"

-- ask # bool: inhibition of "Cc1cc2nc3c(=O)[nH]c(=O)nc-3n(C)c2cc1C=O" >= 6%
-- reply yes (1)

-- ask Try this compound next: "Cc1ccc(-c2nn(C(C)(C)C)c3ncnc(N)c23)cc1"
-- reply yes (1)

-- ask Try this compound next: "Cn1cc(C2=C(c3ccc(Cl)cc3Cl)C(=O)NC2=O)c2ccccc21"
-- reply no (0)

-- ask Try this compound next: "CN1CC[C@H](c2c(O)cc(O)c3c(=O)cc(-c4ccccc4Cl)oc23)[C@H](O)C1"
-- reply no (0)

-- ask Try this compound next: "Nc1ccc(-c2cccc3c(=O)cc(N4CCOCC4)oc23)cc1"
-- reply no (0)

-- ask Try this compound next: "O=c1cc(N2CCOCC2)oc2c(-c3ccccc3)cccc12"
-- reply no (0)

-- ask Try this compound next: "COc1ccc(Cl)cc1NC(=O)Nc1cc(C)nc2ccccc12"
-- reply no (0)

-- ask Try this compound next: "O=C1NC(=O)c2cc(Nc3ccc(F)cc3)c(Nc3ccc(F)cc3)cc21"
-- reply no (0)
